Data origin, for the record: paper PMC6015065

# protocol-details: Pharmacokinetics after single intravenous dose (100 mg/kg)
# Assay type: in vivo, BALB/c mice
# applied-conditions: BALB/c, mouse, plasma; single IV dose 100 mg/kg
recorded-endpoint: clearance (mL/min/kg)

molecule="CC(O)COC[C@H]1O[C@@H]2O[C@H]3[C@H](O)[C@@H](O)[C@@H](O[C@H]4[C@H](O)[C@@H](O)[C@@H](O[C@H]5[C@H](O)[C@@H](O)[C@@H](O[C@H]6[C@H](O)[C@@H](O)[C@@H](O[C@H]7[C@H](O)[C@@H](O)[C@@H](O[C@H]8[C@H](O)[C@@H](O)[C@@H](O[C@H]1[C@H](O)[C@H]2O)O[C@@H]8COCC(C)O)O[C@@H]7COCC(C)O)O[C@@H]6COCC(C)O)O[C@@H]5COCC(C)O)O[C@@H]4COCC(C)O)O[C@@H]3COCC(C)O (stereo partly drawn) [HPβCD, 2-hydroxypropyl-β-cyclodextrin]" recorded_endpoint=clearance units_text=mL/min/kg test_value=0.85

* * *

# protocol-details: in vivo
# applied-conditions: BALB/c, mouse, sc, 500 mg/kg, AUClast, spleen
# Method: The vehicle used for dissolution of test compounds was 0.9% Normal Saline. […] The formulations were prepared on the day of the study. The test compounds were administered at 100 mg/kg for the IV study and 500 mg/kg for the SC study. For the tissue distribution study, again 500 mg/kg was administered by the SC route. Post dose, blood, or the relevant tissue in the case of the distribution study was collected at time points of 2 min, 5 min, 15 min, 30 min, 1 h, 2 h, 4 h, 24 h, 36 h and 48 h. […]
recorded-endpoint: AUC(0-t) (µg·h/mL)

molecule="CC(O)COC[C@H]1O[C@@H]2O[C@H]3[C@H](O)[C@@H](O)[C@@H](O[C@H]4[C@H](O)[C@@H](O)[C@@H](O[C@H]5[C@H](O)[C@@H](O)[C@@H](O[C@H]6[C@H](O)[C@@H](O)[C@@H](O[C@H]7[C@H](O)[C@@H](O)[C@@H](O[C@H]8[C@H](O)[C@@H](O)[C@@H](O[C@H]1[C@H](O)[C@H]2O)O[C@@H]8COCC(C)O)O[C@@H]7COCC(C)O)O[C@@H]6COCC(C)O)O[C@@H]5COCC(C)O)O[C@@H]4COCC(C)O)O[C@@H]3COCC(C)O (stereo partly drawn) [HPβCD, 2-hydroxypropyl-β-cyclodextrin]" test_value=828

* * *

# protocol-details: Pharmacokinetics after single intravenous dose (100 mg/kg)
# Format: in vivo, BALB/c mice
# applied-conditions: BALB/c, mouse, plasma, 500 mg/kg; printed under the Intravenous columns; read-out: Absolute Bioavailability
recorded-endpoint: bioavailability (%)

compound="CC(O)COC[C@H]1O[C@@H]2O[C@H]3[C@H](O)[C@@H](O)[C@@H](O[C@H]4[C@H](O)[C@@H](O)[C@@H](O[C@H]5[C@H](O)[C@@H](O)[C@@H](O[C@H]6[C@H](O)[C@@H](O)[C@@H](O[C@H]7[C@H](O)[C@@H](O)[C@@H](O[C@H]8[C@H](O)[C@@H](O)[C@@H](O[C@H]1[C@H](O)[C@H]2O)O[C@@H]8COCC(C)O)O[C@@H]7COCC(C)O)O[C@@H]6COCC(C)O)O[C@@H]5COCC(C)O)O[C@@H]4COCC(C)O)O[C@@H]3COCC(C)O (stereo partly drawn) [HPβCD, 2-hydroxypropyl-β-cyclodextrin]" units_text=% test_value=42
